Hey, just so you know, these numbers are from patent US8236762B2.

RUN DESCRIPTION: Half-life determination in mouse plasma (LC-MS)
Type: in vitro ADME
CONDITION LABEL: 37° C.
READOUT TYPE: log10 half-life (log10 of the value in h)
Record value = log10 of half-life given in h.

1) CC[C@@H]1NC(=O)[C@H](CCCCN)NC(=O)[C@@H](Cc2c[nH]c3ccccc23)NC(=O)[C@H](Cc2ccc(O)cc2)NC(=O)[C@@H](NC(=O)[C@@H](Cc2ccccc2)NC(=O)CN2CCN(CCNC(=O)COCCOCCNC(=O)COCCOCCNC(=O)COCCOCCNC(=O)COCCOCCNC(=O)CCC(=O)N[C@@H](C(=O)O[C@]3(CC)C(=O)OCc4c3cc3n(c4=O)Cc4cc5ccccc5nc4-3)C(C)C)CC2)CSSC[C@@H](C(=O)N[C@H](C(N)=O)[C@@H](C)O)NC1=O; 0.89

Exam item: Can you look up the measured log10 half-life of "CC[C@@H]1NC(=O)[C@H](CCCCN)NC(=O)[C@@H](Cc2c[nH]c3ccccc23)NC(=O)[C@H](Cc2ccc(O)cc2)NC(=O)[C@@H](NC(=O)[C@@H](Cc2ccccc2)NC(=O)CN2CCN(CCNC(=O)COCCOCCNC(=O)COCCOCCNC(=O)COCCOCCNC(=O)COCCOCCNC(=O)CCC(=O)NCCCCC(=O)O[C@]3(CC)C(=O)OCc4c3cc3n(c4=O)Cc4cc5ccccc5nc4-3)CC2)CSSC[C@@H](C(=O)N[C@H](C(N)=O)[C@@H](C)O)NC1=O" for me?
Marked response: 0.57

Exam item: Same thing, different compound: "CC[C@@H]1NC(=O)[C@H](CCCCN)NC(=O)[C@@H](Cc2c[nH]c3ccccc23)NC(=O)[C@H](Cc2ccc(O)cc2)NC(=O)[C@@H](NC(=O)[C@@H](Cc2ccccc2)NC(=O)CN2CCN(CCNC(=O)COCCOCCNC(=O)COCCOCCNC(=O)COCCOCCNC(=O)COCCOCCNC(=O)CCC(=O)N[C@H](CNC(=O)OCc3ccccc3)C(=O)O[C@]3(CC)C(=O)OCc4c3cc3n(c4=O)Cc4cc5ccccc5nc4-3)CC2)CSSC[C@@H](C(=O)N[C@H](C(N)=O)[C@@H](C)O)NC1=O"
Marked response: 0.23

Exam item: Then what about the compound "CC[C@@H]1NC(=O)[C@H](CCCCN)NC(=O)[C@@H](Cc2c[nH]c3ccccc23)NC(=O)[C@H](Cc2ccc(O)cc2)NC(=O)[C@@H](NC(=O)[C@@H](Cc2ccccc2)NC(=O)CN2CCN(CCNC(=O)COCCOCCNC(=O)COCCOCCNC(=O)COCCOCCNC(=O)COCCOCCNC(=O)CCC(=O)N[C@@H](CCCNC(=N)N)C(=O)O[C@]3(CC)C(=O)OCc4c3cc3n(c4=O)Cc4cc5ccccc5nc4-3)CC2)CSSC[C@@H](C(=O)N[C@H](C(N)=O)[C@@H](C)O)NC1=O" ?
Marked response: 0.08

Exam item: Further, for "CC[C@@H]1NC(=O)[C@H](CCCCN)NC(=O)[C@@H](Cc2c[nH]c3ccccc23)NC(=O)[C@H](Cc2ccc(O)cc2)NC(=O)[C@@H](NC(=O)[C@@H](Cc2ccccc2)NC(=O)CN2CCN(CCNC(=O)COCCOCCNC(=O)COCCOCCNC(=O)COCCOCCNC(=O)COCCOCCNC(=O)CCC(=O)NCCCCCCCCC(=O)O[C@]3(CC)C(=O)OCc4c3cc3n(c4=O)Cc4cc5ccccc5nc4-3)CC2)CSSC[C@@H](C(=O)N[C@H](C(N)=O)[C@@H](C)O)NC1=O" ?
Marked response: 1.19
